In this section we review reported IC50 values for a set of molecules.
- Tested on: HAP1 MTAP-intact cell line
- Assay Remarks: SDMA in-cell western assay, HAP1 MTAP-intact
- Type: cell-based
- Experimental Conditions: Homo sapiens, HAP1, SDMA in-cell western, HAP1 MTAP-intact; read-out: MTAP HAP1 intact IC50

Some solved entries appear below for comparison.
>  <Molecule>
CCc1cc(NC(=O)C(=O)N2C[C@@H](C)CC[C@@H]2c2ccc3nn([C@H]4CCN(C)C4)cc3c2)cnc1N (racemic) [Compound 1091]

>  <Measured On>
HAP1 MTAP-intact cell line

>  <IC50>
100 to 1000 nM

$$$$
>  <Molecule>
Cc1ccc([C@@H]2CC[C@@H](C)CN2C(=O)C(=O)Nc2cncc(C(N)=O)c2)cc1F (racemic) [Compound 162]

>  <Measured On>
HAP1 MTAP-intact cell line

>  <IC50>
> 1000 nM

$$$$
>  <Molecule>
COc1ncc(NC(=O)C(=O)N2C[C@@H](C)CC[C@@H]2c2cscn2)cc1C(N)=O (single isomer, unassigned) [Compound 1033]

>  <Measured On>
HAP1 MTAP-intact cell line

>  <IC50>
> 1000 nM

$$$$

Q. Form field: reported IC50 of Cc1cc(NC(=O)C(=O)N2C[C@@H](C)CC[C@@H]2c2ccc3sc(C4CCN(C5CC5)CC4)nc3c2)cnc1N [Compound 1181]
A. < 100 nM

* * *

- Measured On: PRMT5 (Homo sapiens)
- Construct: purchased Viva (custom protein)
- Assay Remarks: PRMT5 biochemical IC50 assay with MTA as cofactor
- Experimental Conditions: PRMT5, MTA as cofactor; read-out: MTA IC50
pIC50: −log10 of the molar value.
pIC50 values by entry

Reference set (2 entries):
>  <Compound>
CCc1cc(NC(=O)C(=O)N2C[C@H](C)C(F)(F)C[C@H]2c2ccc(F)c(F)c2)cnc1N (single isomer, unassigned) [Compound 728]

>  <Measured Value>
< 6.30

$$$$
>  <Compound>
C[C@H]1CC[C@H](c2ccc(F)cc2)N(C(=O)C(=O)Nc2cnc(OC(F)(F)F)c(C(N)=O)c2)C1 [Compound 1039]

>  <Measured Value>
6.30 to 7.30

$$$$

Q. Recorded pIC50 of Cc1cc(NC(=O)C(=O)N2CCCC[C@@H]2C(C)C)cnc1N (single isomer, unassigned) [Compound 204] , please.
A. 6.30 to 7.30

Q. // next record [H][C@]1([C@]2([H])C[C@]3(C[C@H](O)C3)C2)CC[C@H](C)CN1C(=O)C(=O)Nc1cnc(N)c(C)c1 (single isomer, unassigned) [Compound 766]
A. < 6.30

Q. And for Cc1cncc(NC(=O)C(=O)N2C[C@H](C)CC[C@H]2c2cccc(N)c2)c1 (racemic) [Compound 91] ?
A. 6.30 to 7.30

* * *

- System: HAP1 MTAP-deleted cell line
- Assay Remarks: Viability assay, MTAP-deleted cell line
- Format: cell-based
- Experimental Conditions: Homo sapiens, HAP1, viability assay, MTAP-deleted cell line; read-out: HAP1 MTAP deleted viability
pIC50: −log10 of the molar value.
Form field: pIC50 (one value per entry).

>  <Molecule>
COc1ccc([C@@H]2CC[C@@H](C)CN2C(=O)C(=O)Nc2cncc(C(N)=O)c2)cc1 (racemic)

>  <Measured On>
HAP1 MTAP-deleted cell line

>  <pIC50>
5.00 to 6.00

$$$$
>  <Molecule>
C[C@@H]1CC[C@@H](c2cccc(C3CCC3)c2)N(C(=O)C(=O)Nc2cncc(C(N)=O)c2)C1 (racemic)

>  <Measured On>
HAP1 MTAP-deleted cell line

>  <pIC50>
5.00 to 6.00

$$$$
>  <Molecule>
Cc1cc(NC(=O)C(=O)N2CCCC[C@H]2c2cccs2)cnc1N (single isomer, unassigned)

>  <Measured On>
HAP1 MTAP-deleted cell line

>  <pIC50>
< 5.00

$$$$
>  <Molecule>
C[C@H]1CC[C@H](c2cccc(Cl)c2)N(C(=O)C(=O)Nc2cnc(N)c(C3CC3)c2)C1 (single isomer, unassigned)

>  <Measured On>
HAP1 MTAP-deleted cell line

>  <pIC50>
> 6.00

$$$$
>  <Molecule>
C[C@@H]1CC[C@@H](c2cc[nH]n2)N(C(=O)C(=O)Nc2cncc(C(N)=O)c2)C1 (single isomer, unassigned)

>  <Measured On>
HAP1 MTAP-deleted cell line

>  <pIC50>
< 5.00

$$$$
>  <Molecule>
[2H]c1c([2H])c([C@@]2([2H])CC[C@H](C)CN2C(=O)C(=O)Nc2cncc(C(N)=O)c2)c([2H])c([2H])c1F (racemic)

>  <Measured On>
HAP1 MTAP-deleted cell line

>  <pIC50>
5.00 to 6.00

$$$$
>  <Molecule>
Cc1cc(NC(=O)C(=O)N2C[C@@H](C)CC[C@@H]2c2ccc(NS(C)(=O)=O)nc2)cnc1N (single isomer, unassigned)

>  <Measured On>
HAP1 MTAP-deleted cell line

>  <pIC50>
< 5.00

$$$$
>  <Molecule>
C[C@@H]1CC[C@@H](c2cncc(F)c2)N(C(=O)C(=O)Nc2cncc(C(N)=O)c2)C1 (racemic)

>  <Measured On>
HAP1 MTAP-deleted cell line

>  <pIC50>
< 5.00

$$$$

Q. Need pIC50, item Cc1cc(NC(=O)C(=O)N2C[C@H](C)CC[C@H]2c2cc(F)c3[nH]ncc3c2)cnc1N (single isomer, unassigned)
A. < 5.00

Q. Now the molecule C[C@@H]1CC[C@@H](c2ccc(OC(F)F)cc2)N(C(=O)C(=O)Nc2cncc(C(N)=O)c2)C1 (racemic)
A. 5.00 to 6.00

* * *

- Measured On: PRMT5 (Homo sapiens, UniProt O14744)
- Construct: purchased Viva (custom protein)
- Sequence (O14744 whole entry): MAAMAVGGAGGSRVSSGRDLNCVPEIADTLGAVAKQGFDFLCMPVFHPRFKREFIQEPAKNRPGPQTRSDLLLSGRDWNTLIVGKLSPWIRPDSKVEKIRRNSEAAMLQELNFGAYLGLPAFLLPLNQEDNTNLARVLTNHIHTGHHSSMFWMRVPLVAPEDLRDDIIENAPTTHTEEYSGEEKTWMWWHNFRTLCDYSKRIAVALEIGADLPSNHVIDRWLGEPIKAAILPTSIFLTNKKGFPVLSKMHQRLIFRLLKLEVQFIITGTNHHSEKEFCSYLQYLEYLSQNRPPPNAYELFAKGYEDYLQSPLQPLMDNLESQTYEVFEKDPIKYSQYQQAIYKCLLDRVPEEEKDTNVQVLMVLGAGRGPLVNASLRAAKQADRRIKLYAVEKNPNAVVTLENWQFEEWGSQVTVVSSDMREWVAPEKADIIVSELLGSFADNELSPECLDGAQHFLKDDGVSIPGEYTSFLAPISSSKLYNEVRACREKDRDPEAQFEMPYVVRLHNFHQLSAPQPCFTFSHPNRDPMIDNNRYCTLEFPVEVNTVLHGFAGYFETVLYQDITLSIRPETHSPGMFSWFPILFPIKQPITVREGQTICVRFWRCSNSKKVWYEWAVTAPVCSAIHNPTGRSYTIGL
- Sequence (Q9BQA1 whole entry partner): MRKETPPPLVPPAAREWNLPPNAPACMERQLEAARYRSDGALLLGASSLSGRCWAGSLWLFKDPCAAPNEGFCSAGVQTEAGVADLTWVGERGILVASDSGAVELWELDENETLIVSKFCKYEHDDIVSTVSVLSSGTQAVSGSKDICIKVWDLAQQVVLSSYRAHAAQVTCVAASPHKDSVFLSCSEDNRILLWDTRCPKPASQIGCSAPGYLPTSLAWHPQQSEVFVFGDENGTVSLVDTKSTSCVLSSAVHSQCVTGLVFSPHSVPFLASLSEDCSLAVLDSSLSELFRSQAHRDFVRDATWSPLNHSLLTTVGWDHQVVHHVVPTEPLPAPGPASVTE
- Assay Remarks: PRMT5 biochemical IC50 assay with no cofactor
- Experimental Conditions: PRMT5, no cofactor; read-out: No Cofactor/rel IC50
Property Name: IC50

Worked examples, 2 compounds total:
>  <Compound>
CNc1ccc([C@@H]2CC[C@@H](C)CN2C(=O)C(=O)Nc2cncc(C(N)=O)c2)cn1 (racemic) [Compound 209]

>  <Property Name>
IC50

>  <Measured Value>
50 to 500 nM

$$$$
>  <Compound>
C[C@H]1CC[C@H]([C@H]2CC[C@@H](O)CC2)N(C(=O)C(=O)Nc2cncc(C(N)=O)c2)C1 (single isomer, unassigned) [Compound 382]

>  <Property Name>
IC50

>  <Measured Value>
> 500 nM

$$$$

Moving on to the next compound.
Q. I have this compound here, CCc1cc(NC(=O)C(=O)N2C[C@H](C)CC[C@H]2c2ccc(-c3nccs3)cc2)cnc1N (single isomer, unassigned) [Compound 813] , and I need its recorded IC50.
A. 50 to 500 nM

* * *

- Measured On: PRMT5 (Homo sapiens)
- Construct: purchased Viva (custom protein)
- Assay Remarks: PRMT5 biochemical IC50 assay with no cofactor
- Experimental Conditions: PRMT5, no cofactor; read-out: No Cofactor/ rel IC50
IC50 values by entry

>  <Compound>
Cc1cc(NC(=O)C(=O)N2C[C@H](C)CC[C@@H]2c2ccnn2C)cnc1N (racemic)

>  <IC50>
0.05 to 0.5 µM

$$$$
>  <Compound>
Cc1cc(NC(=O)C(=O)N2CCCCC2c2cccs2)cnc1N (stereo not shown)

>  <IC50>
0.05 to 0.5 µM

$$$$
>  <Compound>
CCN1CCC(c2nc3cc([C@H]4CC[C@H](C)CN4C(=O)C(=O)Nc4cnc(N)c(C)c4)ccc3s2)CC1

>  <IC50>
< 0.05 µM

$$$$

Q. Give the measured IC50 of CC(=O)Nc1ccc([C@@H]2CC[C@@H](C)CN2C(=O)C(=O)Nc2cncc(C)c2)cc1 (racemic) .
A. 0.05 to 0.5 µM

* * *

Parameter: IC50. Scope: all listed entries.
- Measured On: PRMT5 (Homo sapiens, UniProt O14744)
- Construct: purchased Viva (custom protein)
- Assay Remarks: PRMT5 biochemical IC50 assay with SAM as cofactor
- Experimental Conditions: PRMT5, SAM as cofactor; read-out: SAM IC50

>  <Compound>
NC(=O)c1cncc(NC(=O)C(=O)N2CCCC3(C2)OC[C@@H]2C[C@@H]23)c1 (mixture of isomers)

>  <IC50>
> 500 nM

$$$$
>  <Compound>
Cc1cc(NC(=O)C(=O)N2C[C@H](C)CC[C@H]2c2ccc(NC3COC3)cc2)cnc1N (racemic)

>  <IC50>
50 to 500 nM

$$$$
>  <Compound>
COc1ncc(NC(=O)C(=O)N2C[C@@H](C)CC[C@@H]2c2cc3cn[nH]c3s2)cc1C(N)=O (single isomer, unassigned)

>  <IC50>
50 to 500 nM

$$$$

Let's switch to this compound now.
Q. Could you share which IC50 value was measured for C[C@@H]1CC[C@@H](c2cccc3[nH]ncc23)N(C(=O)C(=O)Nc2cncc(C(N)=O)c2)C1 (single isomer, unassigned) ?
A. > 500 nM
